- Tgt: Pseudomonas aeruginosa LpxC enzyme (Pseudomonas aeruginosa (strain ATCC 15692 / DSM 22644 / CIP 104116 / JCM 14847 / LMG 12228 / 1C / PRS 101 / PAO1), UniProt P47205)
- Measurement protocol: biochemical
- Format: biochemical
- Experimental context: class symbols A/B/C by IC50; Table 3; read-out: Enzyme inhibitory activity (inhibitory activity on Pseudomonas aeruginosa LpxC enzyme)
Some molecules, each annotated with its measured IC50.

Molecule	IC50
CCOC1CN(Cc2ccc(C#Cc3ccc(C(=O)N(C)C(C(=O)NC)C(=O)NO)cc3C)cc2)C1 (stereo not shown) [Compound 582]	< 0.01 µM
CNC(=O)C(C(=O)NO)N(C)C(=O)c1ccc(C#Cc2ccc(CN3CC(=CCOC)C3)cc2)cc1 (stereo not shown) [Compound 530]	< 0.01 µM
CNC(=O)C(C(=O)NO)N(C)C(=O)c1ccc(C#Cc2ccc(CN3CCCC(C)(C)C3)cc2)cc1 (stereo not shown) [Compound 513]	< 0.01 µM
CCN1Cc2cc(C#Cc3ccc(C(=O)N(C)C(C(=O)NC)C(=O)NO)cc3)ccc2[C@H]1C (stereo partly shown) [Compound 516]	0.01 to 0.1 µM

====

- Tgt: Pseudomonas aeruginosa LpxC enzyme (Pseudomonas aeruginosa (strain ATCC 15692 / DSM 22644 / CIP 104116 / JCM 14847 / LMG 12228 / 1C / PRS 101 / PAO1))
- Measurement protocol: biochemical
- Assay type: biochemical
- Experimental context: inhibitory activity on Pseudomonas aeruginosa LpxC enzyme, class symbols A/B/C; read-out: Enzyme inhibitory activity

Molecule	IC50
CNC(=O)C(C(=O)NO)N(C)C(=O)c1ccc(-c2ccc3c(c2)cc(COCOC)n3C)cc1 (centres unmarked) [Compound 33]	< 10 nM
CNC(=O)C(C(=O)NO)N(C)C(=O)c1ccc(C#Cc2ccc(CNCCC(C)(C)O)cc2)cc1 (centres unmarked) [Compound 323]	10 to 100 nM
CNC(=O)C(C(=O)NO)N(C)C(=O)c1ccc(CCc2ccc(CCN3CCOCC3)cc2)cc1 (centres unmarked) [Compound 209]	< 10 nM
CNC(=O)C(C(=O)NO)N(C)C(=O)c1ccc(-c2ccc(OC(F)(F)C(F)F)cc2)cc1 (centres unmarked) [Compound 83]	< 10 nM
CNC(=O)C(C(=O)NO)N(C)C(=O)c1ccc(-c2ccc([C@@H](C)NC(=O)OC(C)(C)C)cc2)cc1 (some centres unmarked) [Compound 34]	10 to 100 nM
CNC(=O)C(C(=O)NO)N(C)C(=O)c1ccc(C#CC#Cc2ccoc2)cc1 (centres unmarked) [Compound 484]	< 10 nM
CNC(=O)[C@@](C)(C(=O)NO)N(C)C(=O)c1ccc(CCc2ccc(CN3CCOCC3)cc2)cc1 [Compound 425]	< 10 nM
CNC(=O)C(C(=O)NO)N(CCF)C(=O)c1ccc(-c2ccccc2)cc1 (centres unmarked) [Compound 193]	< 10 nM
CCCCOc1ccc(C(=O)N(C)C(C(=O)NC)C(=O)NO)cc1 (centres unmarked) [Compound 35]	10 to 100 nM
CNC(=O)C(C(=O)NO)N(C(=O)c1ccc(-c2ccc(OCCCN3CCOCC3)cc2)cc1)C1CC1 (centres unmarked) [Compound 198]	< 10 nM
CNC(=O)C(C(=O)NO)N(C)C(=O)c1ccc(-c2ccccc2C)cc1 (centres unmarked) [Compound 18]	10 to 100 nM
O=C(NC(C(=O)NO)C(=O)NCC1CCC1)c1ccc(-c2ccc(OCCO)cc2)cc1 (centres unmarked) [Compound 128]	< 10 nM
CNC(=O)C(C(=O)NO)N(C)C(=O)c1ccc(-c2ccc(C#CCOC)cc2)cc1 (centres unmarked) [Compound 405]	< 10 nM
CNC(=O)C(C(=O)NO)N(C)C(=O)c1ccc(-c2ccc(-c3ccc(CN4CCOCC4)o3)cc2)cc1 (centres unmarked) [Compound 479]	< 10 nM
CNC(=O)C(NC(=O)c1ccc(OC(F)(F)F)cc1)C(=O)NO (centres unmarked) [Compound 16]	> 100 nM
CNC(=O)C(C(=O)NO)N(C)C(=O)c1ccc(-c2cccc(OC)c2)cc1 (centres unmarked) [Compound 279]	10 to 100 nM
CCN(C(=O)c1ccc(-c2ccccc2)cc1)C(C(=O)NC)C(=O)NO (centres unmarked) [Compound 159]	10 to 100 nM
CNC(=O)C(C(=O)NO)N(C)C(=O)c1ccc(-c2ccc3c(c2)ncn3C)cc1 (centres unmarked) [Compound 281]	10 to 100 nM
CNC(=O)C(C(=O)NO)N(C)C(=O)c1ccc(-c2ccc(N)cc2)cc1 (centres unmarked) [Compound 284]	10 to 100 nM
CNC(=O)C(NC(=O)c1ccc(C#Cc2ccc(NCCO)cc2)cc1)C(=O)NO (centres unmarked) [Compound 115]	< 10 nM
CNC(=O)C(C(=O)NO)N(CC(F)F)C(=O)c1ccc(-c2ccccc2)cc1 (centres unmarked) [Compound 174]	< 10 nM
CNC(=O)C(C(=O)NO)N(C)C(=O)c1ccc(-c2ccc(CCCO)cc2)cc1 (centres unmarked) [Compound 165]	< 10 nM
Cc1cc(CNC(=O)C(NC(=O)c2ccc(-c3ccc(OCCO)cc3)cc2)C(=O)NO)no1 (centres unmarked) [Compound 133]	< 10 nM
Cn1cc(CNC(=O)C(NC(=O)c2ccc(-c3ccc(OCCO)cc3)cc2)C(=O)NO)cn1 (centres unmarked) [Compound 147]	< 10 nM
CNC(=O)C(C(=O)NO)N(C(=O)c1ccc(-c2ccc(OCCO)cc2)cc1)C1CC1 (centres unmarked) [Compound 154]	10 to 100 nM
CNC(=O)C(C(=O)NO)N(C)C(=O)c1ccc(C#Cc2ccc(C3(N)CC3)cc2)cc1 (centres unmarked) [Compound 394]	10 to 100 nM
CNC(=O)C(C(=O)NO)N(C)C(=O)c1ccc(-c2ccc3[nH]c(C)cc3c2)cc1 (centres unmarked) [Compound 203]	< 10 nM
CNC(=O)C(C(=O)NO)N(C)C(=O)c1ccc(-c2ccc(NC)c(F)c2)cc1 (centres unmarked) [Compound 38]	< 10 nM
NC(=O)C(NC(=O)c1ccc(-c2ccccc2)cc1)C(=O)NO (centres unmarked) [Compound 111]	10 to 100 nM
CNC(=O)C(C(=O)NO)N(C)C(=O)c1ccc(-c2ccc(OCC3(CN4CCOCC4)CC3)cc2)cc1 (centres unmarked) [Compound 102]	10 to 100 nM
CNC(=O)C(C(=O)NO)N(C)C(=O)c1ccc(-c2ccc(NC)cc2)c(NC)c1 (centres unmarked) [Compound 101]	> 100 nM
CNC(=O)C(C(=O)NO)N(C)C(=O)c1ccc(C#C/C=C/c2ccc(CNC3CC3)cc2)cc1 (centres unmarked) [Compound 481]	< 10 nM

====

- Tgt: Pseudomonas aeruginosa LpxC enzyme (Pseudomonas aeruginosa (strain ATCC 15692 / DSM 22644 / CIP 104116 / JCM 14847 / LMG 12228 / 1C / PRS 101 / PAO1), UniProt P47205)
- Measurement protocol: biochemical
- Format: biochemical
- Experimental context: class symbols A/B/C by IC50; Table 3; read-out: Enzyme inhibitory activity (inhibitory activity on Pseudomonas aeruginosa LpxC enzyme)
In this section, each of the compounds is paired with its reported IC50.
Observed property: IC50

Compound	Observed property	Obs value
CNC(=O)[C@@](C)(C(=O)NO)N(C)C(=O)c1ccc(C#Cc2coc(CN3CCOCC3)c2)cc1 [Compound 592]	IC50	< 10 nM
CCOC1CN(Cc2ccc(C#Cc3ccc(C(=O)N(C)C(C(=O)NC)C(=O)NO)cc3)cc2Cl)C1 (stereo not shown) [Compound 579]	IC50	< 10 nM
CNC(=O)C(C(=O)NO)N(C)C(=O)c1ccc(C#Cc2ccc(COCC(C)(C)N)cc2)cc1 (stereo not shown) [Compound 508]	IC50	10 to 100 nM
CNC(=O)C(C(=O)NO)N(C)C(=O)c1ccc(C#CC2=CCCCC2)cc1 (stereo not shown) [Compound 523]	IC50	10 to 100 nM

====

- System: Pseudomonas aeruginosa strain TS88 (clinical isolate)
- Measurement protocol: Antimicrobial activity, MIC by broth microdilution
- Format: cell-based
- Experimental context: Table 1, 35° C., 18 hours, read-out: MIC Pseudomonas aeruginosa TS88 strain
List of MIC values.

Molecule	Unit	MIC
CNC(=O)C(C(=O)NO)N(C)C(=O)c1ccc(-c2ccc(NCCCCCN3CCOCC3)cc2)cc1 (centres unmarked)	µg/mL	4
CNC(=O)C(C(=O)NO)N(C)C(=O)c1ccc(-c2ccc(C)cc2)cc1 (centres unmarked)	µg/mL	0.25
CNC(=O)C(C(=O)NO)N(C)C(=O)c1ccc(-c2ccc(F)cc2)cc1 (centres unmarked)	µg/mL	1
CNC(=O)C(C(=O)NO)N(C)C(=O)c1ccc(-c2ccccc2)c(F)c1 (centres unmarked)	µg/mL	2
CNc1ccc(-c2ccc(C(=O)N(C)C(C(=O)NO)C(=O)NCc3cc(C)on3)cc2)cc1 (centres unmarked)	µg/mL	4
CNC(=O)C(C(=O)NO)N(C)C(=O)c1ccc(C#Cc2ccccc2)cc1 (centres unmarked)	µg/mL	1
CNC(=O)C(C(=O)NO)N(C)C(=O)c1ccc(-c2ccc(C(F)(F)F)cc2)cc1 (centres unmarked)	µg/mL	1
CNC(=O)C(C(=O)NO)N(C)C(=O)c1ccc(-c2ccc3c(c2)OCO3)cc1 (centres unmarked)	µg/mL	0.5
